Where these numbers come from: the supplement of paper PMC8975748

Tested on: Saccharomyces cerevisiae BY4741 SeMeCo community
Assay: z-score of subpopulation abundance vs DMSO median, subpopulation auxotrophic for L; higher = larger share of this subpopulation than in DMSO controls
Settings: 10 µM; 24 h; SM minimal medium; subpopulation (auxotrophy): L
Structures can show the parent of a compound that is named as a salt.
Rule: T for z-score of subpopulation abundance not less than -0.7, F for anything less.

Evaluate C/C=C\c1ccc(O)c(OC)c1 : z-score of subpopulation abundance at minimum -0.7?
T

Evaluate CNCCCN1c2ccccc2CCc2ccccc21 [Desipramine Hydrochloride] : z-score of subpopulation abundance at minimum -0.7?
T

Evaluate NCCc1ccc(O)c(O)c1 [Dopamine HCl] : z-score of subpopulation abundance at minimum -0.7?
F

Evaluate O=C(O)Cc1ccccc1Nc1c(Cl)cccc1Cl [Diclofenac Sodium] : z-score of subpopulation abundance at minimum -0.7?
T
